Consider the following compounds; for each one, report its pEC50.
System: human beta-coronavirus OC43
Assay: OC43 coronavirus antiviral assay in HeLa cells (cytopathic effect, cell-titer-glo)
Format: cell-based
Details: Betacoronavirus 1, OC43, HeLa, 144 h, 6 days at 33° C., read-out: EC50 (class)
pEC50: −log10 of the molar value.

Using the record for CC(C)(C)[C@H](NC(=O)C1(F)CC1)C(=O)N1C[C@H]2[C@@H]([C@H]1C(=O)N[C@H](C#N)C[C@@H]1CCNC1=O)[C@H]1C=C[C@@H]2C1 [Example 30] , state its measured pEC50.
> 7.00

Using the record for COC(C)(C)C(=O)N[C@H](C(=O)N1C[C@H]2[C@@H]([C@H]1C(=O)N[C@H](C#N)C[C@@H]1CCNC1=O)[C@H]1C=C[C@@H]2C1)C(C)(C)C [Compound 77] , state its measured pEC50.
5.00 to 6.00

Using the record for CC(C)(C)[C@H](NC(=O)C(F)(F)F)C(=O)N1C[C@H]2[C@@H]([C@H]1C(=O)N[C@H](C#N)C[C@@H]1CCNC1=O)[C@H]1C=C[C@@H]2CC1 (mixture of isomers) [Compound 59] , state its measured pEC50.
> 7.00

Using the record for CC(C)(C)[C@H](NC(=O)C(F)(F)C(F)(F)F)C(=O)N1C[C@@H]2[C@H]3C[C@@H]([C@@H]2[C@H]1C(=O)N[C@H](C#N)C[C@@H]1CCNC1=O)[C@H](F)C3 [Example 87] , state its measured pEC50.
> 7.00

Using the record for CC(C)(C)[C@H](NC(=O)C(C)(C)C(F)(F)F)C(=O)N1C[C@H]2[C@@H]([C@H]1C(=O)N[C@H](C#N)C[C@@H]1CCNC1=O)[C@H]1C=C[C@@H]2C1 [Compound 75] , state its measured pEC50.
6.00 to 7.00

Using the record for CC(F)(F)[C@H](NC(=O)C(F)(F)F)C(=O)N1C[C@H]2[C@@H]([C@H]1C(=O)N[C@H](C#N)C[C@@H]1CCNC1=O)[C@H]1C=C[C@@H]2C1 [Compound 133] , state its measured pEC50.
> 7.00

Using the record for O=C(NC1CC1)C(=O)C(C[C@@H]1CCNC1=O)NC(=O)[C@@H]1[C@@H]2[C@H](CN1C(=O)c1cc3c(Cl)cc(Cl)cc3[nH]1)[C@@H]1C=C[C@H]2C1 (stereo partly shown) [Compound 46] , state its measured pEC50.
6.00 to 7.00

Using the record for CC(C)(C)[C@H](NC(=O)C(F)(F)F)C(=O)N1C[C@@H]2[C@H]3C[C@H]([C@@H]4C[C@@H]43)[C@@H]2[C@H]1C(=O)N[C@H](C#N)C[C@@H]1CCNC1=O [Example 2] , state its measured pEC50.
6.00 to 7.00

Using the record for CC(C)(C)[C@H](NC(=O)C(F)(F)F)C(=O)N1C[C@H]2[C@@H]([C@H]1C(=O)N[C@H](C#N)CC1C[C@H](C(F)(F)F)NC1=O)[C@H]1C=C[C@@H]2C1 (stereo partly shown) [Compound 108] , state its measured pEC50.
> 7.00

Using the record for COC1(C(=O)N[C@H](C(=O)N2C[C@H]3[C@@H]([C@H]2C(=O)N[C@H](C#N)C[C@@H]2CCNC2=O)[C@H]2C=C[C@@H]3C2)C(C)(C)C)CC1 [Compound 126] , state its measured pEC50.
6.00 to 7.00
